- target_entity: Follistatin-related protein 3 (Homo sapiens) (UniProt O95633)
- Sequence (O95633 whole entry, looked up): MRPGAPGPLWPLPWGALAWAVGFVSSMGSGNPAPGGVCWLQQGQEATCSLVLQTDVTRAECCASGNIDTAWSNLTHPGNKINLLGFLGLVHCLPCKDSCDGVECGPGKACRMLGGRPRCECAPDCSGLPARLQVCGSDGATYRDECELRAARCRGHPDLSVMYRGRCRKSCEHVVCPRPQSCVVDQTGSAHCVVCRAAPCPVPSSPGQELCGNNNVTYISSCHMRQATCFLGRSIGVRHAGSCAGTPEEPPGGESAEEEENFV
- assay_details: FSTL3 binders on small-molecule microarrays, primary screen, biochemical, small-molecule microarray, 635 nm fluorescence (AID 1105);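 note: score merges emission near 667 nm and signal to noise per printed spot across three slides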
- reported_conditions: FSTL3 binding, higher = more signal
measured_endpoint: composite z-score

Examples from the recorded data:
[
  {
    "compound": "CO[C@H]1COC(=O)[C@H](Cc2ccccc2)NC(=O)CC=C[C@@H](C)[C@H](OC)COC(=O)CC=C[C@@H]1C",
    "target_entity": "Follistatin-related protein 3 (Homo sapiens) (UniProt O95633)",
    "composite z-score": 0.532
  },
  {
    "compound": "COc1ccc(NN2C(C(O)c3cc(OC)c(OC)c(OC)c3)C=CC3C(=O)N(C4CCCCC4)C(=O)C32)cc1 (stereo not given)",
    "target_entity": "Follistatin-related protein 3 (Homo sapiens) (UniProt O95633)",
    "composite z-score": 0.563
  },
  {
    "compound": "O=[N+]([O-])c1ccc(C[n+]2ccc3ccc(O)cc3c2)o1",
    "target_entity": "Follistatin-related protein 3 (Homo sapiens) (UniProt O95633)",
    "composite z-score": 0.42
  },
  {
    "compound": "CO[C@H]1COC(=O)CC=C[C@@H](C)COC(=O)[C@@H](C)NC(=O)CC=C[C@@H]1C",
    "target_entity": "Follistatin-related protein 3 (Homo sapiens) (UniProt O95633)",
    "composite z-score": 1.45
  },
  {
    "compound": "O=C1O[C@@H](c2ccccc2)[C@@H](c2ccccc2)N2[C@@H](c3ccc(OCCO)cc3)[C@]3(C(=O)Nc4ccc(C#CCCO)cc43)[C@@H](C(=O)N3CCN(c4ncccn4)CC3)[C@H]12",
    "target_entity": "Follistatin-related protein 3 (Homo sapiens) (UniProt O95633)",
    "composite z-score": 1.07
  },
  {
    "compound": "CC(C)[Si](OCCCNS(=O)(=O)c1ccc(Br)cc1)(C(C)C)C(C)C",
    "target_entity": "Follistatin-related protein 3 (Homo sapiens) (UniProt O95633)",
    "composite z-score": 0.753
  }
]

Query block: Name the reported composite z-score value associated with the compound COC(=O)[C@@]1(Cc2ccccc2N=[N+]=[N-])N=C(c2ccc(OCCCO)cc2)O[C@H]1c1ccccc1CN=[N+]=[N-]
Result block: -0.0014

Query block: Continue with Cc1ccc(N2C(=O)c3ccccc3[C@@H](C(=O)NCC(F)(F)F)[C@@H]2c2ccc(CO)cc2)nc1
Result block: -1.83

Query block: Next entry: C/C(=N\O)C(=O)NCCCCCNC(=O)OCc1ccccc1
Result block: 1.03

Query block: Further, for COC(=O)C1=CC(c2ccc(CO)cc2)=CC(c2cccs2)N(Cc2cccc(OC(F)(F)F)c2)C=C1C(=O)OC (stereo not given) ?
Result block: 0.568

Query block: Try this compound too: CCCC=C(CCC)[C@@H](NS(=O)(=O)c1cccc(C(F)(F)F)c1)c1ccc(C(=O)OC)cc1
Result block: -0.271

Query block: Next compound: COC(=O)C[C@H]1O[C@]2(C(=O)N(C)c3ccccc32)[C@@H](C)[C@@H]1[Si](C)(C)c1ccc(OC)cc1
Result block: 0.558

Query block: Can you handle COC(=O)C1=CC(c2ccc(CO)cc2)=CC(C2CC2)N(Cc2sc3ccccc3c2Cl)C=C1C(=O)OC (stereo not given) next?
Result block: 1.19

Query block: Also need C=CCOC(=O)[C@@H]1[C@H]2C(=O)O[C@H](c3ccccc3)[C@H](c3ccccc3)N2[C@H](c2ccc(OCCOC(=O)[C@H]3C[C@H]4C(=O)N[C@@H](CCCCNC(C)=O)C(=O)N4[C@H]3c3ccc(O)cc3)cc2)[C@@]12C(=O)Nc1ccc(I)cc12 , thanks.
Result block: 1.19

Query block: Same thing, different compound: CC(C)N1CC=CC23O[C@@H]4/C=C\CCCOC(=O)C4[C@H]2C(=O)N(CCCCCO)[C@@H]3C1=O (stereo not given in full)
Result block: -1.04

###

- target_entity: E3 ubiquitin-protein ligase XIAP (Homo sapiens) (UniProt P98170)
- Sequence (P98170 whole entry, looked up): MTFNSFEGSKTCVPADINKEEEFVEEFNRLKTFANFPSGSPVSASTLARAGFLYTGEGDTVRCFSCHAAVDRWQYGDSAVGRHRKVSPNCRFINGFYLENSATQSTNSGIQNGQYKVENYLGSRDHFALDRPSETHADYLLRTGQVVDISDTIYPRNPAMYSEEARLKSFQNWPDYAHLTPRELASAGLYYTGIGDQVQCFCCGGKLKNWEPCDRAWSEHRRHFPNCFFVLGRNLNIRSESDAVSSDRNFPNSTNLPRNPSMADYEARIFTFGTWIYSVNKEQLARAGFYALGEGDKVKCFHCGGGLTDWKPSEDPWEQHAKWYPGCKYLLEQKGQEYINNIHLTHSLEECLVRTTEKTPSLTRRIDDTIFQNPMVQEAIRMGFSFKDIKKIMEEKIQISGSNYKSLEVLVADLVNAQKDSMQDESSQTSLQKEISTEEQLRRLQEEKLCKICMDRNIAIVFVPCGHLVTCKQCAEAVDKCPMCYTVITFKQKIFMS
- assay_details: XIAP binders, primary screen, biophysical, small-molecule microarray, fluorescence 635 nm (AID 1181);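 note: score merges 667 nm emission and signal to noise over triplicate slides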
- reported_conditions: small-molecule microarray binding, higher = more signal
Item-by-item account of composite z-score
Just the number, please, no unit after it.

[
  {
    "molecule": "COc1ccc([Si](C)(C)[C@H]2[C@H](CC(=O)N(CCO)Cc3ccccc3)O[C@@]3(C(=O)N(C)c4ccccc43)[C@@H]2C)cc1",
    "composite z-score": 0.001
  }
]

Query block: Recorded composite z-score of CN(C)CCCC[C@@H]1NC(=O)[C@@H]2C[C@H](C(=O)O)[C@H](c3ccc(O)cc3)N2C1=O , please.
Result block: 0.101

Query block: Field entry: CO[C@H]1O[C@H](CO)[C@@H](OC(=O)Nc2ccc3c(c2)OCO3)[C@H](OC(=O)Nc2ccccc2)[C@@H]1OC(=O)Nc1ccccc1
Result block: 0.319

Query block: Next molecule up: CN1CCC(CCCO)=CC1C1CC1 (stereo not given)
Result block: 0.77

Query block: // repeat for CC(C)[Si](OCCCNS(=O)(=O)c1ccc(Br)cc1)(C(C)C)C(C)C and report
Result block: -0.18

Query block: Here is the next molecule: O=C1c2ccccc2[C@@]2(Cc3ccccc3N(CC(F)(F)F)C2=O)[C@H](c2ccc(CO)cc2)N1C1CCCCC1
Result block: -0.2

Query block: Try this molecule next: CCC(=O)[C@]12O[C@@]3([C@@H]4C(=O)OCC[C@@H]41)N(CC)C(C)=C(C(=O)OC)[C@@H](c1ccccc1)N3C2=O
Result block: 0.0178

Query block: Also, O=C(NCC(F)(F)F)[C@@H]1c2ccccc2C(=O)N(Cc2ccccc2Cl)[C@H]1c1ccc(CO)cc1 please.
Result block: 0.282

Query block: Would you kindly repeat that for C=CC[C@@]1(C(=O)NCC(O)CO)N=C(c2ccc(OCCCO)cc2)O[C@@H]1c1ccccc1CN=[N+]=[N-] (stereo not given in full) ?
Result block: 0.254

Query block: Now consider COCCOC(=O)N1C(=O)[C@@]2(c3cc(C#CCC(C(=O)OC)C(=O)OC)ccc31)[C@H](c1ccccc1OCCO)N1[C@H](c3ccccc3)[C@H](c3ccccc3)OC(=O)[C@H]1[C@@H]2C(=O)N1CCCCCCC1 and answer again.
Result block: 0.361

###

- target_entity: Torsin-1A-interacting protein 1 (Homo sapiens) (UniProt Q5JTV8)
- Sequence (Q5JTV8 whole entry, looked up): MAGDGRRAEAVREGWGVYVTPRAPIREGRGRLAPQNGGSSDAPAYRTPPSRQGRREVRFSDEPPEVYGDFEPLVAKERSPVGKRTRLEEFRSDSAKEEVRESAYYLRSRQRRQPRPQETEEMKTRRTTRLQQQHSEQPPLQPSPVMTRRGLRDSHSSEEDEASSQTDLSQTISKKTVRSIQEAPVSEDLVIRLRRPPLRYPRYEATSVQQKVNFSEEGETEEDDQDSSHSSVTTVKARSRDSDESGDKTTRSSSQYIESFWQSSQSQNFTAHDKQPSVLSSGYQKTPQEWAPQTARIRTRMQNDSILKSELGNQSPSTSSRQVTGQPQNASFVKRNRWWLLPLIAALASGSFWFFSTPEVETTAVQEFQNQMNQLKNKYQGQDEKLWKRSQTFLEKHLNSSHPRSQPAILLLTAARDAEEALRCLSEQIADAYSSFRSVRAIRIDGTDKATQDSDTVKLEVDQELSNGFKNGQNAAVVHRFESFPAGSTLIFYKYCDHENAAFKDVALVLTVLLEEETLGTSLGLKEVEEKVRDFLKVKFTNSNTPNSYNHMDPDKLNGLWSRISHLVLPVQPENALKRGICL
- assay_details: LAP1 binders from COS7 cell lysate, primary screen, small-molecule microarray, 635/667 nm fluorescence (AID 1116)
- reported_conditions: COS7-hLAP1 lysate binding, 635 nm fluorescence, higher = more signal
measured_endpoint: composite z-score
Form: value (number only, do not type unit).

[
  {
    "compound": "O=C1c2ccccc2[C@](Cc2ccccc2I)(C(=O)NCC(F)(F)F)[C@H](c2ccc(CO)cc2)N1Cc1ccccc1C(F)(F)F",
    "target_entity": "Torsin-1A-interacting protein 1 (Homo sapiens) (UniProt Q5JTV8)",
    "result_value": 0.857
  },
  {
    "compound": "CCCNC(=O)[C@@H]1c2ccccc2C(=O)N(Cc2cc(F)cc(C(F)(F)F)c2)[C@H]1c1ccc(CO)cc1",
    "target_entity": "Torsin-1A-interacting protein 1 (Homo sapiens) (UniProt Q5JTV8)",
    "result_value": 1.44
  },
  {
    "compound": "O=C(NCc1ccccc1)c1ccc(Br)cc1[N+](=O)[O-]",
    "target_entity": "Torsin-1A-interacting protein 1 (Homo sapiens) (UniProt Q5JTV8)",
    "result_value": 0.0817
  },
  {
    "compound": "COC(=O)C1=CC(c2ccc(CO)cc2)=CC(c2cccs2)N(Cc2cccc(OC(F)(F)F)c2)C=C1C(=O)OC (stereo not drawn)",
    "target_entity": "Torsin-1A-interacting protein 1 (Homo sapiens) (UniProt Q5JTV8)",
    "result_value": 1.81
  },
  {
    "compound": "C[C@]1(C(=O)NCc2ccccc2)c2ccccc2C(=O)N(Cc2cc(C(F)(F)F)cc(C(F)(F)F)c2)[C@H]1c1ccc(CO)cc1",
    "target_entity": "Torsin-1A-interacting protein 1 (Homo sapiens) (UniProt Q5JTV8)",
    "result_value": 0.541
  },
  {
    "compound": "C=C[C@H](OC)[C@@H](OC(=O)Nc1ccc(SC)cc1)c1ccc(O)c(F)c1",
    "target_entity": "Torsin-1A-interacting protein 1 (Homo sapiens) (UniProt Q5JTV8)",
    "result_value": 1.31
  },
  {
    "compound": "CC(=O)NCCCC[C@@H]1NC(=O)[C@H]2C[C@@H](C(=O)NCCCCCCN(C)C)[C@@H](c3cccc(OCCO)c3)N2C1=O",
    "target_entity": "Torsin-1A-interacting protein 1 (Homo sapiens) (UniProt Q5JTV8)",
    "result_value": 2.25
  }
]

Kindly review the next compound as well.
Query block: Quick check: composite z-score of C=CCN1C(=O)[C@@]2(Cc3ccccc3)N=C(c3ccc(OCCCO)cc3)O[C@H]2c2ccccc21 ?
Result block: 2.15
